Target: oestrone sulphatase (E1-STS) (Homo sapiens, UniProt P08842)
Construct: endogenous in cells; host or cells: MCF-7 breast cancer cells
Sequence (P08842 22-583): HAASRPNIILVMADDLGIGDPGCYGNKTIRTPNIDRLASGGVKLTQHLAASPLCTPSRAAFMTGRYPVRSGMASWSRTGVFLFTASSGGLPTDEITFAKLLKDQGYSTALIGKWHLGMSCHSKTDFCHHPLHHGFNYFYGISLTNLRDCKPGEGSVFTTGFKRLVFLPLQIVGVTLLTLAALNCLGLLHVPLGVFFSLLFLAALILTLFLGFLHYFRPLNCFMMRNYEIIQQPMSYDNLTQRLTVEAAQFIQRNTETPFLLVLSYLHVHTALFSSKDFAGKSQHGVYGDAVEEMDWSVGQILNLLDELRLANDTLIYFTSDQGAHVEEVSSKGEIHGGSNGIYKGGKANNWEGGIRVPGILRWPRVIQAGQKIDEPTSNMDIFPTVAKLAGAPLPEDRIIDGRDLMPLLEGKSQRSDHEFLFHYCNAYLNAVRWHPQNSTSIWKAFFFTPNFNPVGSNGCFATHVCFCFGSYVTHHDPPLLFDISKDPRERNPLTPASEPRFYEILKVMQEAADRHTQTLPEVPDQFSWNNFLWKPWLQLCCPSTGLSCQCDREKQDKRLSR
Assay: Oestrone sulphatase (E1-STS) inhibition in intact MCF-7 breast cancer cells
Assay type: cell-based
Conditions: 10 μM
recorded.endpoint: % Inhibition of sulphatase activity in MCF-7 cells

{"columns": ["compound", "result"],
 "data": [
  ["COc1cc(-c2oc3cc(O)ccc3c(=O)c2OS(N)(=O)=O)cc(OC)c1OC", "* (*Inactive)"],
  ["NS(=O)(=O)Oc1ccc(C2CC(=O)c3c(O)cc(O)cc3O2)cc1 (stereo not shown) [Compound 20, 5,7-Dihydroxyflavanone 4′-O-sulphamate]", "> 99%"],
  ["COc1cc(-c2oc3cc(OS(N)(=O)=O)ccc3c(=O)c2OS(N)(=O)=O)cc(OC)c1OC", "* (*Inactive)"],
  ["COc1cc(-c2oc3cc(OS(N)(=O)=O)cc(O)c3c(=O)c2OS(N)(=O)=O)cc(OC)c1OC", "* (*Inactive)"]
]}

====

Biological target: oestrone sulphatase (E1-STS) (Homo sapiens)
Construct: endogenous in cells; host or cells: MCF-7 breast cancer cells
Sequence (P08842 22-583): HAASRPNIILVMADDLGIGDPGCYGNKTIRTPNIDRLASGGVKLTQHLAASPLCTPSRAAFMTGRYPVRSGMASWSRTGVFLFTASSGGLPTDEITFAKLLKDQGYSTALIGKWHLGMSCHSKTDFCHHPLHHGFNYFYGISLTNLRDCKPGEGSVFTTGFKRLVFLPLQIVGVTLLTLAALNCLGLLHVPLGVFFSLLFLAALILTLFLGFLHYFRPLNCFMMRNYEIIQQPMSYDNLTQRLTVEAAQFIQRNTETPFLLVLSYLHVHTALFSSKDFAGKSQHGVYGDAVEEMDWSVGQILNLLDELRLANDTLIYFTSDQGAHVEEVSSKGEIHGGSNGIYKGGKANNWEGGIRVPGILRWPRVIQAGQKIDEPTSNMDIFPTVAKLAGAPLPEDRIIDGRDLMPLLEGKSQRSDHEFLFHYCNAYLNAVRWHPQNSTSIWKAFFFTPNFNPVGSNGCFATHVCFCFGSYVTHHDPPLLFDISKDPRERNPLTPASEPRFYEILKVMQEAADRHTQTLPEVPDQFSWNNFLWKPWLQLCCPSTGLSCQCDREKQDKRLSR
Experiment: Oestrone sulphatase (E1-STS) inhibition in intact MCF-7 breast cancer cells
Assay type: cell-based
Details: 1 μM
recorded.endpoint: % Inhibition of sulphatase activity in MCF-7 cells

Guide cases for % Inhibition of sulphatase activity in MCF-7 cells, answers given:
{"columns": ["compound", "result"],
 "data": [
  ["COc1ccc(-c2oc3cc(OS(N)(=O)=O)cc(O)c3c(=O)c2OS(N)(=O)=O)cc1 [Compound 11]", "* (*Inactive)"],
  ["COc1cc(-c2oc3cc(OS(N)(=O)=O)ccc3c(=O)c2OS(N)(=O)=O)cc(OC)c1OC [Compound 14]", "* (*Inactive)"],
  ["NS(=O)(=O)Oc1ccc(C2COc3cc(OS(N)(=O)=O)ccc3C2)cc1 (racemic) [Compound 22, (±) Isoflavane-7,4′-O,O-bisulphamate]", ">99%"],
  ["COc1cc(-c2oc3cc(O)cc(O)c3c(=O)c2OS(N)(=O)=O)cc(OC)c1OC [Compound 13]", "* (*Inactive)"],
  ["COc1cc(-c2oc3cc(O)ccc3c(=O)c2OS(N)(=O)=O)cc(OC)c1OC [Compound 15]", "* (*Inactive)"]
]}

From here, focus on the item given below.
Req: // lookup % Inhibition of sulphatase activity in MCF-7 cells for NS(=O)(=O)Oc1ccc(-c2coc3cc(OS(N)(=O)=O)cc(O)c3c2=O)cc1 [Compound 17]
Resp: 79–99%
